Measured GI50, listed per entry.
# Tested on: NCI-H460 lung

# MOL SMILES, SYSTEM TESTED, RESULT
measured = [
    ("CC(=O)C(C=O)C(C)=O.CC(=O)CC(C)=O.CC(=O)CC(C)=O.[Ru]", "NCI-H460 lung", "28.5 µM"),
    ("COc1ccc2c(c1)C(=O)c1c-2c(N2CCN(C(=O)CCNCCNCCO)CC2)nc2ccccc12", "NCI-H460 lung", "4.61 µM"),
    ("N[C@@H](CSSC[C@H](N)C(=O)N1CCn2cc(-c3ccccc3)nc2[C@@H]1CC1CCCCC1)C(=O)N1CCn2cc(-c3ccccc3)nc2[C@@H]1CC1CCCCC1", "NCI-H460 lung", "1.92 µM"),
    ("C[C@H](c1ccccc1)N(CCC(=O)O)C(=O)CCN(C(=O)CCN(C(=O)CCN[C@H](C)c1ccccc1)[C@H](C)c1ccccc1)[C@H](C)c1ccccc1", "NCI-H460 lung", "> 100 µM"),
    ("COc1c2ccccc2c(O)c2c(=O)ccn(C)c12", "NCI-H460 lung", "3.51 µM"),
]

Ask: Under NCI-H460 lung: GI50 value of OCc1ccc(N(Cc2ccc(F)cc2)CC2CCC2)cc1Cl ?
Reply: 3.17 µM

Ask: Under NCI-H460 lung: GI50 value of O=C(c1ccco1)c1c(C(F)(F)F)n([O-])c2ccc(F)cc2[n+]1=O ?
Reply: 0.926 µM

Ask: Under NCI-H460 lung: GI50 value of N=C1C(c2nc3ccccc3s2)=C(O)CN1c1cc(Cl)cc(Cl)c1 ?
Reply: 18.5 µM

Ask: Under NCI-H460 lung: GI50 value of COc1ccc2nc3cc(Cl)ccc3c(Nc3cc(C(C)C)c(O)cc3C)c2c1 ?
Reply: 1.71 µM

###

Measured GI50, listed per entry.
# Tested on: SF-295 CNS
# ASSAY COMMENT: NCI tumour cell line growth inhibition, 48 h

Consider the reported GI50 for these compounds:
# COMPOUND, SYSTEM TESTED, GI50
data = [
    ("CCCc1n(Cc2ccc3ccccc3n2)cc[n+]1Cc1ccc2ccccc2n1", "SF-295 CNS", "3570 nM"),
    ("CCc1ccc2c(c1)C(=O)c1c-2n(CCCN)c(=O)c2cc([N+](=O)[O-])ccc12", "SF-295 CNS", "1070 nM"),
    ("Fc1ccc(-c2nn3c(COc4ccc(Cl)cc4Cl)nnc3s2)cc1Oc1ccccc1", "SF-295 CNS", "6200 nM"),
    ("O=C1NC(=N[C@H](CO)c2ccccc2)S/C1=C\\c1ccc2ncccc2c1", "SF-295 CNS", "4690 nM"),
    ("Fc1ccc(-c2c(-c3ccncc3)[nH]c3nccnc23)cc1", "SF-295 CNS", "> 15100 nM"),
]

Ask: What value of GI50 has been reported for the following compound? N[C@@H](CSSC[C@H](N)C(=O)N1CCn2cc(-c3ccccc3)nc2[C@@H]1CC1CCCCC1)C(=O)N1CCn2cc(-c3ccccc3)nc2[C@@H]1CC1CCCCC1
Reply: 1830 nM

###

# Tested on: SNB-75 CNS
# ASSAY COMMENT: NCI tumour cell line growth inhibition, 48 h
RESULT TYPE: TGI

# MOLECULE, TGI
rows = [
    ("N#CCC1(c2ccc(Cl)cc2)NC(=O)c2ccccc21 (stereo not given)", "> 100 µM"),
    ("CN1CCc2cc3c4cc2C1Cc1ccc(cc1)Oc1cc(ccc1O)CC1c2c(cc(O)c(c2O4)O3)CCN1C (stereo not given)", "65.6 µM"),
    ("CC(=O)C(C=O)C(C)=O.CC(=O)CC(C)=O.CC(=O)CC(C)=O.[Ru]", "> 100 µM"),
]

Ask: Under SNB-75 CNS: TGI value of COc1cc(NC(=O)c2ccccc2Nc2ccnc(C(F)(F)F)c2)cc(OC)c1OC ?
Reply: > 100 µM

Ask: Under SNB-75 CNS: TGI value of C=C(C)CC(C)(c1cc2ccccc2n1C)N1CCOCC1 (stereo not given) ?
Reply: > 100 µM
